Reference for the values: patent US20250381223A1

Molecular target: T1, CD28 (detection antigen of the BLI assay) (human, UniProt P10747 19-152, limits assumed)
T1 construct: also called the antigen
Assay: BLI (GATOR); antibody loaded at 30 nM, antigen 300-37.5 nM

binder: huVH3huVL1 (antibody, human IgG1, kappa, V domains shown) VH: QVQLQESGPGLVKPSETLSLTCTVSGFSLSDYGVHWVRQSPGKGLEWIGVIWAGGGTNYNSALKSRKTISKDNSKSQVSLKLSSVTAADTAVYYCARDKGYSYYYSMDYWGQGTTVTVSS VL: DIQLTQSPSSLSVSVGDRVTISCRASESVEYYVTSLMQWYQQKPGQAPKLLIFAASNVESGVPSRFSGSGSGTNFTLTISSVQEEDFAMYFCQQSRKVPYTFGGGTKLEIKR
result_units: nM
Kd: 8.36
//
binder: huVH3huVL3 (antibody, human IgG1, kappa, V domains shown) VH: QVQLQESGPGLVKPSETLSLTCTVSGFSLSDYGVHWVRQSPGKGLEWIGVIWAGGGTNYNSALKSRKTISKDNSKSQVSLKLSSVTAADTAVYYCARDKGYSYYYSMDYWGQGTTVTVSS VL: DIQLTQSPSSLSASVGDRVTITCRASESVEYYVTSLMQWYQQKPGKAPKLLIFAASNVESGVPSRFSGSGSGTDFTLTISSLQPEDFATYYCQQSRKVPYTFGGGTKLEIKR
result_units: nM
Kd: 9.59
//
binder: huVH1huVL2 (antibody, human IgG1, kappa, V domains shown) VH: QVKLQESGPGLVKPSETLSITCTVSGFSLSDYGVHWVRQSPGKGLEWLGVIWAGGGTNYNSALMSRKTISKDNSKSQVFLKMSSLTAADTAVYYCARDKGYSYYYSMDYWGQGTTVTVSS VL: DIQLTQSPSSLSASVGDRVTITCRASESVEYYVTSLMQWYQQKPGKAPKLLIFAASNVESGVPSRFSGSGSGTNFTLTISSVQPEDFATYFCQQSRKVPYTFGGGTKLEIKR
result_units: nM
Kd: 6.54
